# maps each entry to its D2L pIC50
# EXPERIMENTAL SYSTEM: human Dopamine D2L receptor (Homo sapiens, UniProt P14416)
# Construct: expressed in transfected cells; host or cells: CHO cells
# Sequence (P14416 whole entry): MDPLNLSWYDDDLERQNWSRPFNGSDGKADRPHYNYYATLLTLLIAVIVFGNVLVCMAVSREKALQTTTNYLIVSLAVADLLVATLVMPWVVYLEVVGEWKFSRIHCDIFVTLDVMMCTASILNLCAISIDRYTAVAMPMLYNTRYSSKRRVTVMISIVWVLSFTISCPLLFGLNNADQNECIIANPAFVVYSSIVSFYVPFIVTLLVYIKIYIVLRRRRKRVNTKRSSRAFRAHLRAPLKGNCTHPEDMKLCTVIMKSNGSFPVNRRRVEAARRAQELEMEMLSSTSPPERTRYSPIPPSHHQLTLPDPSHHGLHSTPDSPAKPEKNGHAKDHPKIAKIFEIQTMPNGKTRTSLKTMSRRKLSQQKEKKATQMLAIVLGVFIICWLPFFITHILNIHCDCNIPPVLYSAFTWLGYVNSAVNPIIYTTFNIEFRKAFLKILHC
# TEST NAME: In vitro binding affinity for human D2L receptor ([3H]Spiperone binding)
# SETTINGS: human D2L receptor-transfected CHO cell membranes
Hey, just send me the number, nothing else.

Field: example entries. Status: answers known.
COMPOUND | D2L pIC50
O=C(O)C(=O)O.OC1CCN(CC2CC3c4ccccc4Oc4ccc(Br)cc4C3O2)CC1 (stereo not shown) [Compound 286] | 7.50
Fc1ccc2c(c1)[C@@H]1O[C@@H](CN3CCc4ccccc4C3)C[C@@H]1c1ccccc1C2.O=C(O)C(F)(F)F [Compound 275] | 8.03
CC1c2ccccc2C2CC(CN3CCC(O)C3)OC2c2cc(F)ccc21.O=C(O)C(=O)O (mixture of isomers) [Compound 45] | 6.46
COc1ccc2c(c1)C1OC(CN3CCC(O)CC3)CC1c1ccccc1O2.O=C(O)C(=O)O (racemic) [Compound 288] | 6.08
O=C(O)C(=O)O.OC1CCN(CC2CC3c4ccccc4Oc4ccc(Cl)cc4C3O2)CC1 (stereo not shown) [Compound 284] | 7.14

D2L pIC50 for CC(=O)OCCN1[C@H](C)CN(C[C@H]2C[C@@H]3c4ccccc4Cc4ccc(F)cc4[C@@H]3O2)C[C@@H]1C.O=C(O)C(=O)O [Compound 281] ?
7.74

D2L pIC50 for O=C(O)C(=O)O.OC1CCN(CC2CC3c4ccccc4Oc4ccc(Cl)cc4C3O2)CC1 (stereo not shown) [Compound 285] ?
7.49

D2L pIC50 for O=C(O)C(=O)O.O[C@@H]1CCN(C[C@H]2C[C@@H]3c4ccccc4Cc4ccc(F)cc4[C@@H]3O2)C1 [Compound 2] ?
7.86

D2L pIC50 for O=C(O)C(=O)O.OC1CCN(CC2CC3c4ccccc4Oc4ccc(F)cc4C3O2)CC1 (racemic) [Compound 282] ?
6.10

D2L pIC50 for Fc1ccc2c(c1)C1OC(CN3CCN(Cc4ccoc4)CC3)CC1c1ccccc1C2.O=C(O)C(F)(F)F (stereo not shown) [Compound 61] ?
8.09

###

# EXPERIMENTAL SYSTEM: human Dopamine D2L receptor (Homo sapiens, UniProt P14416)
# Construct: expressed in transfected cells; host or cells: CHO cells
# TEST NAME: In vitro binding affinity for human D2L receptor ([3H]Spiperone binding)
# SETTINGS: human D2L receptor-transfected CHO cell membranes, read-out: D2L pIC50 (converted)
# maps each entry to its IC50
For clarity, give the value followed by its unit.

Field: example entries. Status: answers known.
MOLECULE | REPORTED PROPERTY | OBSERVED VALUE
C=CCOC(=O)N1CCN(CC2CC3c4ccccc4Cc4ccc(F)cc4C3O2)CC1 (stereo not drawn) [Compound 84] | IC50 | 25.7 nM
CS(=O)(=O)CCCCNC(=S)NC1CCN(CC2CC3c4ccccc4Cc4ccc(F)cc4C3O2)CC1 (stereo not drawn) [Compound 251] | IC50 | 10.7 nM
Fc1ccc2c(c1)C1OC(CN3CCN(Cc4ccco4)CC3)CC1c1ccccc1C2 (stereo not drawn) [Compound 60] | IC50 | 6.31 nM
Fc1ccc2c(c1)C1OC(CN3CCN(Cc4cccs4)CC3)CC1c1ccccc1C2 (stereo not drawn) [Compound 58] | IC50 | 7.41 nM
O=C(NC1CCN(CC2CC3c4ccccc4Cc4ccc(F)cc4C3O2)CC1)c1ccc(-c2ccccc2)cc1 (stereo not drawn) [Compound 237] | IC50 | 58.9 nM

IC50 for OC(COc1ccc(F)cc1)CN1CCN(CC2CC3c4ccccc4Cc4ccc(F)cc4C3O2)CC1 (mixture of isomers) [Compound 57] ?
18.6 nM

IC50 for Fc1ccc2c(c1)C1OC(CN3CCN(c4nc5ccccc5s4)CC3)CC1c1ccccc1C2 (stereo not drawn) [Compound 125] ?
257 nM

###

# maps each entry to its IC50
# EXPERIMENTAL SYSTEM: human cloned 5-HT2A receptor, expressed in L929 cells (Homo sapiens, UniProt P28223)
# Construct: expressed in transfected cells; host or cells: L929 cells
# Sequence (P28223 whole entry): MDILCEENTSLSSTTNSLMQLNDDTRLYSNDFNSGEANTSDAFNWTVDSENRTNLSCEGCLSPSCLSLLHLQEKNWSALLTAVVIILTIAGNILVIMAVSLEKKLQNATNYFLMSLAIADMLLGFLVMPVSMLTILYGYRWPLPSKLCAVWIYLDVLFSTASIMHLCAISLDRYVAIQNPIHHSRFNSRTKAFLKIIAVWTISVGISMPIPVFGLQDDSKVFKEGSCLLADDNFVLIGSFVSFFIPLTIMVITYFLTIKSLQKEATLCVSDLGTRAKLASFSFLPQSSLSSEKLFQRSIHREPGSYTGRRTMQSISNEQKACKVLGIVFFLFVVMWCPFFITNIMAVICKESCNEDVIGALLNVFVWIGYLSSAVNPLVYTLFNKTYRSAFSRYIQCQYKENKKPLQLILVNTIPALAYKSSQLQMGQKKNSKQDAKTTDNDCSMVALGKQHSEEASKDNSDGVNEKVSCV
# TEST NAME: In vitro binding affinity for 5-HT2A receptor ([125I]R91150 radioligand binding)
# SETTINGS: human cloned 5-HT2A receptor in L929 cells, [125I]R91150; read-out: 5-HT2A pIC50 (converted)
Write the number in nM without appending the unit.

Field: example entries. Status: answers known.
MOLECULE | READOUT UNITS | IC50
COC(=O)c1ccc(OC2CCN(CC3CC4c5ccccc5Cc5ccc(F)cc5C4O3)C2)cc1 (stereo not shown) | nM | 10.5
O=S(=O)(Cc1ccccc1)N1CCN(CC2CC3c4ccccc4Cc4ccc(F)cc4C3O2)CC1 (stereo not shown) | nM | 4.68
CC(C)(C)NC(=S)N1CCN(CC2CC3c4ccccc4Cc4ccc(F)cc4C3O2)CC1 (stereo not shown) | nM | 14.5

Consider the additional molecule presented here.
IC50 for O=C(NCCCc1ccccc1)N1CCN(CC2CC3c4ccccc4Cc4ccc(F)cc4C3O2)CC1 (stereo not shown) ?
2.57

###

# EXPERIMENTAL SYSTEM: human cloned 5-HT2A receptor, expressed in L929 cells (Homo sapiens, UniProt P28223)
# Construct: expressed in transfected cells; host or cells: L929 cells
# TEST NAME: In vitro binding affinity for 5-HT2A receptor ([125I]R91150 radioligand binding)
# SETTINGS: human cloned 5-HT2A receptor in L929 cells, [125I]R91150; read-out: 5-HT2A pIC50 (converted)
REPORTED PROPERTY: IC50 (nM)
Write the number in nM without appending the unit.

IC50 for O=C(C1CCN(CC2CC3c4ccccc4Cc4ccc(F)cc4C3O2)CC1)N1CCN(CC=Cc2ccccc2)CC1 (stereo not shown) ?
3.16

IC50 for CC(=Cc1ccccc1)CN1CCN(CC2CC3c4ccccc4Cc4ccc(F)cc4C3O2)CC1 (stereo not shown) ?
33.9

IC50 for Fc1ccc2c(c1)C1OC(CN3CCN(Cc4cnc[nH]4)CC3)CC1c1ccccc1C2 (stereo not shown) ?
7.41

IC50 for OCC1CN(CC2CC3c4ccccc4Cc4ccc(F)cc4C3O2)CCO1 (mixture of isomers) ?
4.37

IC50 for "Fc1ccc2c(c1)[C@@H]1O[C@@H](CN3CCN(CC4CCCCC4)CC3)C[C@@H]1c1ccccc1C2" ?
41.7

IC50 for OC1CCN(C[C@H]2C[C@@H]3c4ccccc4Cc4ccc(F)cc4[C@@H]3O2)C1 (stereo partly shown) ?
0.692

IC50 for CCOC(=O)CNC(=O)N1CCN(CC2CC3c4ccccc4Cc4ccc(F)cc4C3O2)CC1 (stereo not shown) ?
2.57

###

# EXPERIMENTAL SYSTEM: NET (norepinephrine transporter) (Rattus norvegicus, UniProt Q63380)
# Construct: Cortex from rat brain was collected and homogenised; from tissue; host or cells: rat brain cortex
# Sequence (Q63380 1-617): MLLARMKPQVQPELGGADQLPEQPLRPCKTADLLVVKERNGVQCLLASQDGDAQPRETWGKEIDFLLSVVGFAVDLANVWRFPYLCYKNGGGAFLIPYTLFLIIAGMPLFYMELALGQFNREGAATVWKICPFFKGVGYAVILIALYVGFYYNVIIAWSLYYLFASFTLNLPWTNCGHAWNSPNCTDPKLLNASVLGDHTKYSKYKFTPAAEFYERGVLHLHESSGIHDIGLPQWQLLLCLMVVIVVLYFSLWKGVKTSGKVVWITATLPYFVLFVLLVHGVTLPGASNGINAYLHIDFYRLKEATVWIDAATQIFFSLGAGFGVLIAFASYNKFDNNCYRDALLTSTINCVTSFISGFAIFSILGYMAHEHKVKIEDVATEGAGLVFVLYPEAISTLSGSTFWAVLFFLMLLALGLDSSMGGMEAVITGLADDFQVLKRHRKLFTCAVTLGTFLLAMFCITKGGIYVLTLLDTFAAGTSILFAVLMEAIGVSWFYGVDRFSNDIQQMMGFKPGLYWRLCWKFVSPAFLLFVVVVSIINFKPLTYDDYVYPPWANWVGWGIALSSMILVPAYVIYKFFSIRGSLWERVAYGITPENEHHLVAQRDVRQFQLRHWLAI
# TEST NAME: In vitro determination of NET reuptake inhibition ([3H]Nixosetine binding, rat brain cortex)
# SETTINGS: rat brain cortex, read-out: NET pIC50 (converted)
REPORTED PROPERTY: IC50 (µM)
Write the number in µM without appending the unit.

Field: example entries. Status: answers known.
MOLECULE | IC50 / µM
O=C(OC1CCN(CC2CC3c4ccccc4Cc4ccc(F)cc4C3O2)C1)c1ccc(F)cc1F (mixture of isomers) | 1.74
O=C(NCc1ccco1)C1CCN(CC2CC3c4ccccc4Cc4ccc(F)cc4C3O2)CC1 (stereo not drawn) | 9.12
O=C(NC1CCN(C[C@H]2C[C@@H]3c4ccccc4Cc4ccc(F)cc4[C@@H]3O2)CC1)OCc1ccccc1Cl | 5.62
CCC(C)(C)NC(=O)N1CCN(CC2CC3c4ccccc4Cc4ccc(F)cc4C3O2)CC1 (stereo not drawn) | 4.47
O=C(NC1CCN(CC2CC3c4ccccc4Cc4ccc(F)cc4C3O2)CC1)c1cc2ccccc2s1 (stereo not drawn) | 8.51
O=C(NC1CCCCCCC1)N1CCN(C[C@H]2C[C@@H]3c4ccccc4Cc4ccc(F)cc4[C@@H]3O2)CC1 | 9.55
C#CCOC(=O)NC1CCN(CC2CC3c4ccccc4Cc4ccc(F)cc4C3O2)CC1 (stereo not drawn) | 8.91
CC(C)NC(=O)N1CCN(CC2CC3c4ccccc4Cc4ccc(F)cc4C3O2)CC1 (stereo not drawn) | 6.46
COc1ccccc1N1CCN(C(=O)C2CCN(CC3CC4c5ccccc5Cc5ccc(F)cc5C4O3)CC2)CC1 (stereo not drawn) | 4.47
O=C(O)CC1CN(C[C@H]2C[C@@H]3c4ccccc4Cc4ccc(F)cc4[C@@H]3O2)CCO1 (stereo partly drawn) | 0.0427

IC50 for COc1cccc(OC2CCN(CC3CC4c5ccccc5Cc5ccc(F)cc5C4O3)C2)c1 (mixture of isomers) ?
4.07

IC50 for O=C(NCCCc1ccccc1)N1CCN(CC2CC3c4ccccc4Cc4ccc(F)cc4C3O2)CC1 (stereo not drawn) ?
4.17

IC50 for O=C(NC1CCN(CC2CC3c4ccccc4Cc4ccc(F)cc4C3O2)CC1)c1ccc(Cl)cc1Cl (stereo not drawn) ?
5.75

IC50 for Fc1ccc2c(c1)C1OC(CN3CCN(Cc4cnc(-c5ccccc5)[nH]4)CC3)CC1c1ccccc1C2 (stereo not drawn) ?
4.9

IC50 for COCCNC(=S)NC1CCN(CC2CC3c4ccccc4Cc4ccc(F)cc4C3O2)CC1 (stereo not drawn) ?
3.24

Sourced from patent US8569267B2
